Molecular target: [MCL-1]-[compound of formula (I)]-[CRBN/DDB1] complex (Homo sapiens, UniProt Q07820+Q96SW2)
Sequence (Q07820 whole entry): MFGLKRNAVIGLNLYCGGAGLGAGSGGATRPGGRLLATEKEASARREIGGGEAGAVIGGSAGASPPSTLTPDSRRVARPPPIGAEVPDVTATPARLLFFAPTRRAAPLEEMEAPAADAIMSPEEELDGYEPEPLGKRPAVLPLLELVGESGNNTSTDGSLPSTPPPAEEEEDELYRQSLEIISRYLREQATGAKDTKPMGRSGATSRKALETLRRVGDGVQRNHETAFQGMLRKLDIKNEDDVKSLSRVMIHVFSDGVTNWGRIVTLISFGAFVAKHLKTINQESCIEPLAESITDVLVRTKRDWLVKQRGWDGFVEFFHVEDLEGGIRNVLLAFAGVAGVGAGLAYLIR
Sequence (Q96SW2 whole entry): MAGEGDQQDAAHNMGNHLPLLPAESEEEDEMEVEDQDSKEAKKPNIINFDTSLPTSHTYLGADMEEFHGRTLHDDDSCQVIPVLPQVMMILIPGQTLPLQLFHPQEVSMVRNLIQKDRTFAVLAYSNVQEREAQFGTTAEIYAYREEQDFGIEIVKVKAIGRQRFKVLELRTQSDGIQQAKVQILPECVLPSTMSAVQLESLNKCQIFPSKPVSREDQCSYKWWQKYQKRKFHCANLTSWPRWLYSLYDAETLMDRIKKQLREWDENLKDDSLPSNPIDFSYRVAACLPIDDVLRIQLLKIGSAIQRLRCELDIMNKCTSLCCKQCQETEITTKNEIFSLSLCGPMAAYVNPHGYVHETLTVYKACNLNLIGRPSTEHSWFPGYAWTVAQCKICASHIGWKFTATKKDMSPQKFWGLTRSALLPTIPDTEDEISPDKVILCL
Sequence (Q16531 whole entry partner): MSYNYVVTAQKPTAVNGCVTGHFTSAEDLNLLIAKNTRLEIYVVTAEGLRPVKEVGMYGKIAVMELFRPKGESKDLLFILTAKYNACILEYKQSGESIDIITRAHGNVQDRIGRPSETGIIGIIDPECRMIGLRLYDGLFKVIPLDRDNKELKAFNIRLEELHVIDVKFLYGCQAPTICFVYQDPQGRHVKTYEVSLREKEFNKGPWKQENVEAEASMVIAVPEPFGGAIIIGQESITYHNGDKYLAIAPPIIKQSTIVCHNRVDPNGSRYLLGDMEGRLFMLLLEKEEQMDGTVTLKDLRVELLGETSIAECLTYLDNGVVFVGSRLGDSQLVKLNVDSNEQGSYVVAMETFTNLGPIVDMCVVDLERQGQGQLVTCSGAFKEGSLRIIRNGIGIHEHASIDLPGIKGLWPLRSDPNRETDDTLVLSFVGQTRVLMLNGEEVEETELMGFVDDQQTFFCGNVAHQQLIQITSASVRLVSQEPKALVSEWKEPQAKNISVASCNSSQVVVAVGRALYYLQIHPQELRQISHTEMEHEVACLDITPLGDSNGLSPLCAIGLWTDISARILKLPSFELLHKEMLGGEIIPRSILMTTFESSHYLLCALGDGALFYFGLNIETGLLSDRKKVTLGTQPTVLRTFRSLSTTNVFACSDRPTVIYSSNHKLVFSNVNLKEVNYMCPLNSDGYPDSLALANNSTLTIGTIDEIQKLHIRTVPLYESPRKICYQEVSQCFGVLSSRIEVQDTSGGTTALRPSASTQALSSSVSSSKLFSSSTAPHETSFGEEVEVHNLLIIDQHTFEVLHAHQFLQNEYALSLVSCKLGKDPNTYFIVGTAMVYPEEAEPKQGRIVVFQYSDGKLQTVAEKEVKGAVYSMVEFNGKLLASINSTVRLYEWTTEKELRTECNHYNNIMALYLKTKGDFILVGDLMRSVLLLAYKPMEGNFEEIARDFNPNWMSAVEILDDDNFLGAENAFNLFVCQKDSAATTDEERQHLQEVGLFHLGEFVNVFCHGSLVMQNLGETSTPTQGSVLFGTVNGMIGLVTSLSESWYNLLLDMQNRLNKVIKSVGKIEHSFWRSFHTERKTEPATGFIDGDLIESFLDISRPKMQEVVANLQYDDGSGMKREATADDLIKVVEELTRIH
Test: AlphaLISA dose response ternary complex formation assay
Assay type: binding
Conditions: read-out: AlphaLISA dose response Average pEC50 by molecule (converted)
Description: The effect of the bifunctional compounds of the invention on the formation of a ternary complex composed of [MCL-1]-[compound of formula (I)]-[CRBN/DDB1] was investigated with two methods: AlphaLISA dose response assay or HTRF ternary complex assay. […] The read-out was performed with PerkinElmer Enspire Multimode Plate Reader (method for AlphaLISA 384-well low volume, Filterset: λexc=680 nm, λem=615 nm). […]
Measurement Kind: EC50

Would you please look over these solved cases?
Cc1nn(C)c(C)c1-c1c(Cl)ccc2c(CCCOc3cccc4cc(F)ccc34)c(C(=O)O)n(CCN3CCN(C(=O)COc4cccc5c4CN([C@H]4CCC(=O)NC4=O)C5=O)CC3)c12 (single isomer, unassigned) [Compound 296] :: < 0.1 µM
Cc1nn(C)c(C)c1-c1c(Cl)ccc2c(CCCOc3cccc4cc(F)ccc34)c(C(=O)O)n(CCN3CCN(C(=O)[C@H](C)Oc4cccc5c4C(=O)N([C@H]4CCC(=O)NC4=O)C5=O)CC3)c12 (single isomer, unassigned) [Compound 319] :: < 0.1 µM
Cc1nn(C)c(C)c1-c1c(Cl)ccc2c(CCCOc3cccc4ccccc34)c(C(=O)O)n(CCN3CC4CC(C3)N4C(=O)COc3cccc4c3C(=O)N(C3CCC(=O)NC3=O)C4=O)c12 (centres unmarked) [Compound 208] :: < 0.1 µM
Cc1nn(C)c(C)c1-c1c(Cl)ccc2c(CCCOc3cccc4cc(F)ccc34)c(C(=O)O)n(CCN3CCN(C(=O)COc4c(F)ccc5c4CN(C4CCC(=O)NC4=O)C5=O)CC3)c12 (centres unmarked) [Compound 342] :: < 0.1 µM
Cc1nn(C)c(C)c1-c1c(Cl)ccc2c(CCCOc3cccc4cc(F)ccc34)c(C(=O)O)n(CCN3CCN(C(=O)COc4cccc5c4C(=O)N(C4CCC(=O)NC4=O)C5=O)CC3)c12 (centres unmarked) [Compound 214] :: < 0.01 µM
Cc1nn(C)c(C)c1-c1c(Cl)ccc2c(CCCOc3cccc4cc(F)ccc34)c(C(=O)O)n(CCN3CCC4CN(C(=O)COc5cccc6c5CN(C5CCC(=O)NC5=O)C6=O)CC43)c12 (centres unmarked) [Compound 301] :: < 0.01 µM
Cc1nn(C)c(C)c1-c1c(Cl)ccc2c(CCCOc3cccc4cc(F)ccc34)c(C(=O)O)n(CCCCN(C)C(=O)COc3cccc4c3CN(C3CCC(=O)NC3=O)C4=O)c12 (centres unmarked) [Compound 326] :: < 0.1 µM
Cc1nn(C)c(C)c1-c1c(Cl)ccc2c(CCCOc3cccc4cc(F)ccc34)c(C(=O)O)n(CCN3CCC4CN(C(=O)CNc5cccc6c5C(=O)N(C5CCC(=O)NC5=O)C6=O)CC43)c12 (centres unmarked) [Compound 300] :: < 0.01 µM

Kindly review the next compound as well.
Prompt: Query EC50 for Cc1nn(C)c(C)c1-c1c(Cl)ccc2c(CCCOc3cccc4cc(F)ccc34)c(C(=O)O)n(CCN3CCN(C(=O)COc4c(Cl)ccc5c4CN(C4CCC(=O)NC4=O)C5=O)CC3)c12 (centres unmarked) [Compound 345]
Response: < 0.1 µM
